Source listed as patent US8497245B2.

Consider molecules characterized by their pKi with Human urokinase type plasminogen activator (h u-PA) (Homo sapiens, UniProt P00749).
pKi: −log10 of the molar value. Counter-ions that a name gives are not always drawn.

A selection of reference data follows.
| molecule | observed_result |
| --- | --- |
| CC(=O)N1CCN(C(=O)C[C@@H](NS(=O)(=O)Cc2ccccc2)C(=O)N2CCC[C@H]2C(=O)NCc2cc(Cl)ccc2CN)CC1 | < 4.30 |
| CC(=O)N1CCC(N(C)C(=O)CC[C@@H](NS(=O)(=O)Cc2ccccc2)C(=O)N2CCC[C@H]2C(=O)NCc2cc(Cl)ccc2CN)CC1 | < 4.70 |

Below: the item to evaluate.
Q: Under Human urokinase type plasminogen activator (h u-PA) (Homo sapiens, UniProt P00749), report pKi for NCc1ccc(Cl)cc1CNC(=O)[C@@H]1CCN1C(=O)[C@@H](CC(=O)N1CCNCC1)NS(=O)(=O)Cc1ccccc1 [Compound 2.50, TFA]
A: < 4.60
